Test: Clinical study #3: PK of edaravone oral formulation (formula #3), fasted vs after high-fat, standard or light meal; analysis of variance
Format: in vivo, human
Conditions: male, human, plasma, po, 105 mg, 105 mg oral, formula #3, 2 h after light meal, mean (n = 16); read-out: Cmax
measured_attribute: Cmax
In your response, the unit should come after the numeric value.

Consider CC1=NN(c2ccccc2)C(=O)C1 [Edaravone, 3-methyl-1-phenyl-2-pyrazolin-5-one] . Its measured Cmax is 1900 ng/mL

###

Test: Clinical study #2: PK of edaravone oral formulation (formula #2), fasted vs 4 h after high-fat meal
Assay type: in vivo
Details: male, human, plasma, 100 mg, 100 mg oral, formula #2, 4 h after high-fat meal, mean (n = 9)
measured_attribute: half-life (h)
Numbers only, in h.

Consider CC1=NN(c2ccccc2)C(=O)C1 [Edaravone, 3-methyl-1-phenyl-2-pyrazolin-5-one] . Its measured half-life is 7.66
